test system: HepG2; experiment: Antitumor activity against human HepG2 cells by MTT assay; format: functional, cell-based
Assign IC50 to each entry below.
Give bare numbers, in µg/mL.

Below: 2 compounds and their reported IC50.
smilesNotation | quantity | unitsLabel | measuredValue
N#Cc1c(F)c(Cl)c(C(C(=O)c2ccc(Cl)cc2)=C2NCCN2)c(C#N)c1F | IC50 | µg/mL | 47.5
N#Cc1c(Cl)c(Cl)c(C(C(=O)c2ccccc2)=C2NCCN2)c(C#N)c1Cl | IC50 | µg/mL | 10.2

Read the next record carefully.
compound N#Cc1c(F)c(F)c(C(C(=O)c2ccccc2)=C2NCCN2)c(C#N)c1F , IC50 observed: 9.1

* * *

Would you kindly list IC50 for each of these compounds?
system: HepG2; assay: Antitumor activity against human HepG2 cells by MTT assay; assay type: functional, cell-based
Answers are plain numbers, in µg/mL.

smilesNotation | unitsLabel | IC50
Cc1ccc(C(=O)C(=C2NCCN2)c2c(F)c(F)c(C#N)c(F)c2C#N)cc1 | µg/mL | 29.2
COc1ccc(C(=O)C(=C2NCCN2)c2c(Cl)c(Cl)c(C#N)c(Cl)c2C#N)cc1 | µg/mL | 10.8
N#Cc1c(F)c(Cl)c(C(C(=O)c2ccccc2)=C2NCCN2)c(C#N)c1F | µg/mL | 32.6
N#Cc1c(F)c(F)c(C(C(=O)c2ccc(F)cc2)=C2NCCCN2)c(C#N)c1F | µg/mL | 11
COc1ccc(C(=O)C(=C2NCCN2)c2c(Cl)c(F)c(C#N)c(F)c2C#N)cc1 | µg/mL | 9.8
CCOC(=O)C(=C1NCCN1)c1c(Cl)c(Cl)c(C#N)c(Cl)c1C#N | µg/mL | 0.2

For every listed record, write down its IC50.
1. N#Cc1c(F)c(Cl)c(C(C(=O)c2ccccc2)=C2NCCCCN2)c(C#N)c1F
2. CCOC(=O)C(=C1NCCN1)c1c(F)c(F)c(C#N)c(F)c1C#N
3. N#Cc1c(F)c(C#N)c(C(C(=O)c2ccccc2)=C2NCCN2)c(F)c1Nc1ccccc1

A:
1: 27.8; 2: 0.7; 3: 102

* * *

test system: SK-OV-3; test: Antitumor activity against human SKOV3 cells by MTT assay; type: functional, cell-based
quantity: IC50 (µg/mL)
Numbers only, in µg/mL.

Sample records with IC50:
smilesNotation | IC50 [µg/mL]
COc1ccc(C(=O)C(=C2NCCN2)c2c(Cl)c(Cl)c(C#N)c(Cl)c2C#N)cc1 | 6.4
CCOC(=O)C(=C1NCCN1)c1c(Cl)c(Cl)c(C#N)c(Cl)c1C#N | 4.1

Now take the following compound into account.
The recorded IC50 with SK-OV-3 for Cc1ccc(C(=O)C(=C2NCCN2)c2c(Cl)c(F)c(C#N)c(F)c2C#N)cc1 was 6.7

* * *

system: SK-OV-3; test: Antitumor activity against human SKOV3 cells by MTT assay; format: functional, cell-based
quantity: IC50 (µg/mL)
One number for each entry, in µg/mL.

Consider the following illustrative entries.
smilesNotation | measuredValue
CCOC(=O)C(=C1NCCN1)c1c(Cl)c(F)c(C#N)c(F)c1C#N | 4.9
N#Cc1c(F)c(Cl)c(C(C(=O)c2ccc(Cl)cc2)=C2NCCN2)c(C#N)c1F | 8.6
N#Cc1c(Cl)c(Cl)c(C(C(=O)c2ccccc2)=C2NCCN2)c(C#N)c1Cl | 9.9
N#Cc1c(F)c(F)c(C(C(=O)c2ccc(F)cc2)=C2NCCCN2)c(C#N)c1F | 0.5

Dear reader, for each entry below, please note its IC50.
1. Cc1ccc(C(=O)C(=C2NCCN2)c2c(F)c(F)c(C#N)c(F)c2C#N)cc1
2. N#Cc1c(Cl)c(Cl)c(C(C(=O)c2ccccc2)=C2NCCCCN2)c(C#N)c1Cl
3. N#Cc1c(F)c(F)c(C(C(=O)c2ccccc2)=C2NCCCCN2)c(C#N)c1F
4. N#Cc1c(F)c(C#N)c(C(C(=O)c2ccccc2)=C2NCCN2)c(F)c1Nc1ccccc1
5. CC(=O)C(=C1NCCN1)c1c(Cl)c(F)c(C#N)c(F)c1C#N
6. Cc1ccc(C(=O)C(=C2NCCN2)c2c(Cl)c(Cl)c(C#N)c(Cl)c2C#N)cc1

A:
[2, 2.7, 4.2, 0.2, 1.5, 9.2]

Entry source: ChEMBL document CHEMBL1153165
